test: chemical genetic growth profiling, strain panel (AID 1159580);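 note: tested at 20 µM; growth read once vehicle control cultures reached saturation at 30 °C; 1 = growth at the plate median or of vehicle wells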; details: S. cerevisiae deletion strains, growth OD, locus YFL009W, strain cdc4, stronger effect = lower value
About 2,000 (36%) of roughly 5,500 compounds were called active. Not shown: some 18% with an inconclusive outcome. Some of the results follow.
Endpoint label: normalized growth
The reply should be a number, written without any unit.

O=C(NCc1ccncc1)c1ccc(-n2cccn2)cc1; 0.981

q: Name the reported normalized growth value associated with the compound Cc1c2c(=O)[nH]ncc2c(-c2ccccc2)n1-c1ccc([N+](=O)[O-])cc1
a: 0.975

q: Find the recorded normalized growth belonging to CC(C)c1ccc(NCC(O)CSc2ccccc2)cc1 (stereo not drawn) and report it.
a: 0.952

* * *

assay: chemical genetic growth profiling, strain panel (AID 1159580);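 note: tested at 20 µM; growth read once vehicle control cultures reached saturation at 30 °C; 1 = growth at the plate median or of vehicle wells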; details: S. cerevisiae deletion strains, growth OD, locus YKL190W, strain CNB1, stronger effect = lower value
About 2,000 (36%) of roughly 5,500 compounds were called active. About 18% were inconclusive and are not listed. Some of the results follow.
Endpoint label: normalized growth
// no unit string in output, number only

C1CNCCN1; 1
CCOP(=S)(OCC)SCn1c(=O)oc2cc(Cl)ccc21; 1.01

q: Return reported normalized growth; argument: C=CC(C1=CC(=O)C(OC)=CC1=O)c1ccc(O)cc1 (stereo not drawn)
a: 1.01

* * *

test: chemical genetic growth profiling, strain panel (AID 1159580);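 note: tested at 20 µM; growth read once vehicle control cultures reached saturation at 30 °C; 1 = growth at the plate median or of vehicle wells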; conditions: S. cerevisiae deletion strains, growth OD, locus YHR205W, strain SCH9, stronger effect = lower value
Out of some 5,500 compounds screened, about 2,000 (36%) were called active. Another 18% or so got no clear call; they are omitted. The list shows a part of the results.
normalized growth less than 0.9 is Fulfilled; normalized growth greater than or equal to 0.9 is Not fulfilled.

Reference set (3 entries):
CC(C)c1ccc(NCC(O)CSc2ccccc2)cc1 (stereo not drawn); Fulfilled
O=S(=O)(N/N=C\c1ccc(Cl)cc1)c1ccc(-c2ccccn2)s1; Not fulfilled
Fc1cccc(F)c1NC(=S)Nc1cc(C(F)(F)F)cc(C(F)(F)F)c1; Fulfilled

q: Please let me know if N#CC(C#N)=C/C=C(/Sc1ccc(F)c(Cl)c1)c1ccc(Cl)cc1 shows normalized growth below 0.9.
a: Fulfilled

* * *

test: chemical genetic growth profiling, strain panel (AID 1159580);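 note: tested at 20 µM; growth read once vehicle control cultures reached saturation at 30 °C; 1 = growth at the plate median or of vehicle wells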; conditions: S. cerevisiae deletion strains, growth OD, locus YNL233W, strain BNI4, stronger effect = lower value
In all, about 5,500 compounds went through this assay and about 2,000 (36%) were called active. About 18% were inconclusive and are not listed. The list shows a part of the results.
This listing pairs compounds with measured normalized growth.
Returns: the value as a bare number; no unit string appended.

Below, each entry is followed by its recorded normalized growth result.
CN(C)CCOC(C)(c1ccccc1)c1ccccn1 (stereo not given); 0.986
COc1cc(C(=O)NCc2ccc(OCCN(C)C)cc2)cc(OC)c1OC; 0.994
C[C@H]1[C@H]2CCC3C4CC=C5C[C@@H](N(C)C)CC[C@]5(C)C4CC[C@@]32CN1C (stereo not given in full); 1
CC(=O)OC1CC(OC(C)=O)C2(C)C(CC(OC(C)=O)C3(C)C2CCC2(C)C(c4ccoc4)CC4OC423)C1(C)C (stereo not given); 0.986
O=C1CCCC2C3CC(CN12)[C@@H]1CCCCN1C3 (stereo not given in full); 0.998

q: Item O=[N+]([O-])c1cc([As](=O)(O)O)ccc1O has what recorded normalized growth?
a: 1.01

q: For the compound CN[C@H](CC(=O)O)C(=O)O , what normalized growth is on record?
a: 1.01

q: What does the record list as normalized growth for COc1ccccc1OCCNCC(O)COc1cccc2[nH]c3ccccc3c12 (stereo not given) ?
a: 1

q: normalized growth for C1CCN2CC3CC(CN4CCCCC34)C2C1 (stereo not given) ?
a: 0.998

q: Which normalized growth value is on record for Nc1ncnc2c1ncn2C1O[C@H](COP(=O)(O)O)[C@@H](O)[C@H]1O (stereo not given in full) ?
a: 1.01

q: What normalized growth value was documented for this compound, COC(=O)Oc1ccccc1C(=O)O ?
a: 1.01

q: What value of measured normalized growth is listed for Cc1occc(=O)c1O ?
a: 1.01

q: May I ask what normalized growth has been recorded for CCCCC1(COC(=O)CCC(=O)O)C(=O)N(c2ccccc2)N(c2ccccc2)C1=O ?
a: 1

q: // returns reported normalized growth for input OC[C@@H]1CCCN2CCCC[C@H]12
a: 1.01

q: // normalized growth lookup, key: O=[N+]([O-])c1cc(O)c(O)c([N+](=O)[O-])c1
a: 1
